# Test system: RXF 393 renal
# PROTOCOL SUMMARY: NCI tumour cell line growth inhibition, 48 h
# TGI per entry

Example results:
1. O=c1[nH]c2ccccc2n1C1CCN(CCOc2ccccc2)CC1 = > 100 µM
2. COC(=O)CNC(=O)CSc1nnc(COc2ccc(Cl)cc2)n1-c1ccccc1 = 51.1 µM
3. CCCCCC(/C=C/c1ncccc1OCCCCCC(=O)O)=N\NC1=NCCN1 = > 100 µM
4. NS(=O)(=O)c1cc(C(=O)O)c(Cl)c([N+](=O)[O-])c1Cl = > 100 µM

# input Quickly give me recorded TGI for `COc1cc(OC)nc(-n2c(N)c(C(=O)O)c3ccc([N+](=O)[O-])cc3c2=O)n1`
# output > 100 µM

# input Quickly give me recorded TGI for `C[C@]12CC[C@H](O)CC1=CC[C@@H]1[C@@H]2CC[C@]2(C)NC(=O)/C(=C\c3ccccc3)C[C@@H]12`
# output 27.9 µM

# input Quickly give me recorded TGI for `COc1cc2c(cc1O)C(=O)O[C@@H]1CC=C3CCN(C)[C@H]3[C@H]21`
# output > 25 µM

# input Quickly give me recorded TGI for C=C1C(O)C2CC(C)(C)C(=O)C2=C(CC(C)C)C12CC2 (centres undefined)
# output > 100 µM

# input Quickly give me recorded TGI for CCC(C(=O)[C@@H](C)[C@@H](O)[C@H](C)[C@@H]1O[C@@H]([C@@H](CC)C(=O)ONC(=O)c2ccccc2)CC[C@@H]1C)[C@H]1O[C@]2(C=CC(=O)[C@]3(CC[C@@](C)([C@H]4CC[C@](O)(CC)[C@H](C)O4)O3)O2)[C@H](C)C[C@@H]1C (some centres undefined)
# output 1.74 µM

====

# TGI per entry
# Tested on: SK-MEL-28 melanoma
# PROTOCOL SUMMARY: NCI tumour cell line growth inhibition, 48 h

1. CCOC(=O)CCn1cnc(N)n1 = > 100 µM

# input Quickly give me recorded TGI for `Cn1c(N)c(/C=C/C(=O)Oc2ccccc2)c(=O)n(C)c1=O`
# output > 100 µM

# input Quickly give me recorded TGI for CC(=O)O[C@H]1CC[C@]2(C)C3C(=O)C[C@]4(C)[C@@H](C(C)CCC(=O)O)CC[C@@]4(C)[C@@H]3CC[C@H]2C1(C)C (stereo not given in full)
# output > 50 µM

# input Quickly give me recorded TGI for CC(=O)OCC1=CC2CCC3C(C)(CCC[C@]3(C)COC(C)=O)C23CC[C@H]1C3 (stereo not given in full)
# output > 100 µM

# input Quickly give me recorded TGI for Cc1ccc(NC(=O)CCC(=O)C2Cc3ccccc3C2=O)cc1C (stereo not given)
# output > 100 µM

====

# Test system: SF-268 CNS
# PROTOCOL SUMMARY: NCI tumour cell line growth inhibition, 48 h
# TGI per entry

1) COc1ccc(NC(=O)c2cccc(C3CCc4c(cc(OC)c(OC)c4OC)O3)c2)cc1 (stereo not drawn) = > 100 µM
2) COc1ccc(N[C@@H]2c3cc4c(cc3C(c3cc(OC)c(O)c(OC)c3)[C@H]3C(=O)OCC32)OCO4)cc1OC (stereo partly drawn) = > 56.7 µM
3) Cn1c(N)c(/C=C/C(=O)Oc2ccccc2)c(=O)n(C)c1=O = > 100 µM
4) O=C(OCc1ccccc1)n1cccc1 = > 100 µM
5) Cc1nn(C(=O)c2ccc(Cl)cc2)c2c1C(c1ccc(Cl)cc1)SC(N)=N2 (stereo not drawn) = > 10 µM

# input Quickly give me recorded TGI for `N/C(=N/S(=O)(=O)c1cc(C(=O)Nc2ccc(F)cc2)c(Cl)cc1SCc1ccccc1)Nc1ccccc1O`
# output 5.69 µM

# input Quickly give me recorded TGI for Cc1ccc(C2C3Cc4ccccc4C3=NN2c2ccc(S(=O)(=O)NC(=O)Nc3ccccc3)cc2)cc1 (stereo not drawn)
# output 55 µM

# input Quickly give me recorded TGI for `Cn1c(=O)[nH]c2c(c1=O)C(=O)CN2`
# output > 100 µM

# input Quickly give me recorded TGI for `CC(=N/NC(N)=S)/C(C)=N/NC(N)=S`
# output > 100 µM
